- Target Of Assay: T1, Recombinant human IL-1beta (rhIL-1b) (human, UniProt P01584 117-269)
- T1 construct: R&D Systems Cat. No. 201-LB/CF; also called IL-1β; human IL-1β
- Assay Details: Biacore low-res, mAb captured, 25C; IL-1β in solution (118 nM) over captured mAb; low-resolution Biacore, 25 C
koff: recorded values

Binder	Unit Abbrev	koff
6.33.1 (antibody, human IgG4, V domains shown, lambda; also called mAb 6.33.1) VH: QVQLVESGGGVVQPGRSLRLSCAASGFTFSVYGMHWVRQAPGKGLEWVAVIWYDGSNKYYADSVKGRFTISRDNSKNTLYLQMNSLRAEDTAVYYCAREKSSGWFFDYWGQGTLVTVSS VL: QSALTQPASVSGSPGQSITISCTGTSSDVGSYNLVSWYQQHPGKAPKLMIYEVSKRPSGISNRFSGSKSGNTASLTISGLQAEDEADYYCCSYAGNSIWVFGGGTKLTVL	s⁻¹	0.00016
5.36.1 (antibody, human IgG4, V domains shown, kappa) VH: QVQLQQSGPGLVKPSQTLSLTCAISGDSVSSNSAAWNWIRQSPSRGLEWLGRTYYRSKWYNDYAVSVKSRITINPDTSKNQFSLQLNSVTPEDTAVYYCAREEQQLVRYYYYYGMDVWGQGTTVTVS VL: DIVMTQTPLSLSVTPGQPASISCKSSQSLLHSDGRTYLYWYLQRPGQPPQLLIYEASYRFSGVPDRFSGSGSGTDFTLKISRVEAEDVGIYYCMQSIQLPRTFGQGTRLEIK	s⁻¹	0.00042
9.19.1 (antibody, human IgG4, V domains shown, lambda; also called mAb 9.19.1) VH: QVQLVESGGGVVQPGRSLRLSCAASGFTFNNYGMHWVRQAPGKGLECVAVIWYDGGNKYYADSVKGRFAISRDNSKNTLYLQMNSLRAEDTAVYYCTAVTKLNYYYGMDVWGQRTTVTVS VL: QSALTQPASVSGSPGQSITISCTGTSSDVGGYNYVSWYQQHPGKAPKFMIYEVSNRPSGVSNRFSGSKSGNTASLTISGLQAEDEADYYCSSYTSSSILVFGGGTKLTVL	s⁻¹	0.00015
9.26.1 (antibody, human IgG4, V domains shown, lambda; also called 9.26.3) VH: QVQLVESGGGVVQPGRSLRLSCAASGFTFNNYGMHWVRQAPGKGLECVAVIWYDGGNKYYADSVKGRFAISRDNSKNTLYLQMNSLRAEDTAVYYCTAVTKLNYYYGMDVWGQGTTVTVS VL: QSALTQPASVSGSPGQSITISCTGTSSDVGGYNYVSWYQQHPGKAPKLMIYEVSNRPSGVSNRFSGSKSGNTASLTISGLQAEDEADYYCSSYTSSSILVFGGGTKLTVL	s⁻¹	0.00035
9.54.1 (antibody, human IgG4, V domains shown, lambda; also called 9.54.2) VH: QVQLVESGGGVVQPGRSLRLSCAASGFTFSSFGMHWVRQAPGKGLEWVAVIWYDGSNKYYADSVKGRFTISRDNSKNTLYLQMNSLRAEDTAVYYCARDPNYDILTGYYYYGMDVWGQGTTVTVS VL: SSELTQDPAVSVALGQTVRITCQGDILRTYYASWYQQKPGQAPVLVIYGKNDRPSGIPDRFSGSSSGNTASLTITGAQAEDEADYYCDSRDNTVTHLVFGGGTKLTVL	s⁻¹	0.00085
9.2.1 (antibody, human IgG4, V domains shown, lambda) VH: QVQLVESGGGVVQPGRSLRLSCAASGFTFNNYGMHWVRQAPGKGLECVAVIWYDGGNKYYADSVKGRFAISRDNSKNTLYLQMNSLRAEDTAVYYCTAVTTLYYYYGMDVWGQGTTVTVS VL: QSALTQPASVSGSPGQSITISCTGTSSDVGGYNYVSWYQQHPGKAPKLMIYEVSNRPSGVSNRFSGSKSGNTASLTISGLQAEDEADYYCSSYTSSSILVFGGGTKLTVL	s⁻¹	0.00074
8.18.1 (antibody, human IgG4, V domains shown, lambda; also called mAb 8.18.1) VH: QVQLQESGPGLVKPSETLSLTCTVSGGSVSSGGYYWSWIRQPPGKGLEWIGYFYYSGSPNYNPSLKRRIAISVDTSKNQFSLRLSSVTAADTAVYYCARDPMHYYGMDVWGQGTTVTVSS VL: SSELTQPPSVSVFPGQTANITCSGDKLGDKFACWYQQKPGQSPVLVIYRDNKRPSGIPERFSGSNSGNTATLTISGTQAMDEADYYCQAWDSSTYVVFGGGTKLTVL	s⁻¹	0.00022
8.50.1 (antibody, human IgG4, V domains shown, lambda) VH: QVQLQESGPGLVKPSETLSLTCTVSGGSISSDYWSWIRQPAGKGLEWIGRFYNSGRTNYRPSLKSRITMSVDTSKNQFSLKLSSVTAADTAVYYCARDMYSGRGNWYFDLWGRGTLVTVS VL: SYELTQPPSVSVSPGQTARITCSGDALPKKYAYWYQQKSGQAPVLVIYEDSKRPSGIPERFSGSSSGTMATLTISGAQVEDEADYYCYSTDSSDNHRVFGGGTKLTVL	s⁻¹	0.027
9.11.1 (antibody, human IgG4, V domains shown, lambda; also called 9.11.3) VH: QVQLVESGGGVVQPGRSLRLSCAASGFTFSVYGMHWVRQAPGKGLEWVAVIWYDGNNKYYVDSVKGRFTISRDNSKNTLYLQLNSLRAEDTAVYYCARERSSSWYFDYWGQGTLVTVSS VL: QSALTQPASVSGSSGQSITISCTGTSSDVGSYNLVSWYQQHPGKAPKLMIYEVSKRPSGVSNRFSGSKSGNTASLTISGLQAEDEADYYCCSYAGNSNWVFGGGTKLTVL	s⁻¹	0.0002
